RESULT TYPE: melting point

Specify measured melting point for CCOC(=O)CC1CN(c2c(C)cccc2C)C(=N)N1c1c(C)cccc1C (stereo not given) .
142 to 144 °C

Specify measured melting point for Cc1ccc(S(=O)(=O)OCC(O)(CC(C)c2ccccc2)C(F)(F)F)cc1 (stereo not given) .
95 to 96 °C

Specify measured melting point for O=Cc1c(O)cccc1OCCCC(=O)O .
151 to 153 °C

Specify measured melting point for CCCC(=O)Nc1cc(NC(=O)CCC)c2ccc(C)nc2c1OC(=O)CCC .
195 to 200 °C

Specify measured melting point for CCC(=O)N1CCC(NC(=O)N[C@@H]2C[C@H]2c2ccccc2)CC1 (relative stereo) .
155 to 158 °C
